Biological target: CCR4 (Homo sapiens, UniProt P51679)
Construct: host or cells: CHO-K1
Sequence (P51679 1-360): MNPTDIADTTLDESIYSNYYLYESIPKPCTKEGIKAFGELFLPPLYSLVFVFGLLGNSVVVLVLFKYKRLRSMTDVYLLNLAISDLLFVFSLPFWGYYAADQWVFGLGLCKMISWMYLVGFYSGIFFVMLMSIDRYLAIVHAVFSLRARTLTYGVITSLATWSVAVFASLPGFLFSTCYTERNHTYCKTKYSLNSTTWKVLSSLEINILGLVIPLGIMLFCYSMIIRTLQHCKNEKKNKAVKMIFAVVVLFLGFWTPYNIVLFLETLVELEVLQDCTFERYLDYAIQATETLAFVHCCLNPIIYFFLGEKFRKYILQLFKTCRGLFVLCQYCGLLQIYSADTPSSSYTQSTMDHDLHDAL
Assay: PathHunter eXpress CCR4 CHO-K1 β-Arrestin GPCR Assay, agonist format
Assay type: cell-based
Conditions: high concentration, 50 uM
Experimental endpoint: Raw Data

ACPLMSSVNCTAGCA [24-13-00-N001, bicyclic peptide ligand, TBMB scaffold, from CCR4 cell-based selection] = 11512

a = ACQLTCLPPPRQPGCA [24-15-00-N001, bicyclic peptide ligand, TATA scaffold, from CCR4 cell-based selection]
b = ACRAVHSLRCLTTCA [24-17-00-N001, bicyclic peptide ligand, TATA scaffold, from CCR4 cell-based selection]
Could you tell me which of a and b has the lower Raw Data reading? Give the label under which the chosen entry appears. a
(a: 10917, b: 16749)

----------
Target: CCR4 (Homo sapiens, UniProt P51679)
Construct: host or cells: CHO-K1
Sequence (P51679 1-360): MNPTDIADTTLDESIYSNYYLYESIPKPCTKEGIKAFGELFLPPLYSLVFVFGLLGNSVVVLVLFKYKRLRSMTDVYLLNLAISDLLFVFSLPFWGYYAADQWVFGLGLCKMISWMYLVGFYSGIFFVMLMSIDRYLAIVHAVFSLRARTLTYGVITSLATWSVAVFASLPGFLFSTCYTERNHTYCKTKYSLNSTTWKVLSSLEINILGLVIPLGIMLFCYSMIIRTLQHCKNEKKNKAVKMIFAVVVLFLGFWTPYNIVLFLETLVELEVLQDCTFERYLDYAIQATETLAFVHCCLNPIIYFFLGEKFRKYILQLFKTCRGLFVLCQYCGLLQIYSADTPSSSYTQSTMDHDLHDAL
Experiment: PathHunter eXpress CCR4 CHO-K1 β-Arrestin GPCR Assay, agonist format
Assay type: cell-based
Details: high concentration, 0.003 uM
Experimental endpoint: Raw Data

ACQTLCNTAEDIRCA [24-16-00-N001, bicyclic peptide ligand, TBMB scaffold, from CCR4 cell-based selection] = 11906
ACRAVHSLRCLTTCA [24-17-00-N001, bicyclic peptide ligand, TATA scaffold, from CCR4 cell-based selection] = 11809
ACQLTCLPPPRQPGCA [24-15-00-N001, bicyclic peptide ligand, TATA scaffold, from CCR4 cell-based selection] = 11501
ACLSCARHGNQCA [24-12-00-N001, bicyclic peptide ligand, TATA scaffold, from CCR4 cell-based selection] = 11299
ACPLMSSVNCTAGCA [24-13-00-N001, bicyclic peptide ligand, TBMB scaffold, from CCR4 cell-based selection] = 11640
ACLNGCRNTNSQCA [24-11-00-N001, bicyclic peptide ligand, TATA scaffold, from CCR4 cell-based selection] = 10549
ACQLTCLTPARQPGCA [24-14-00-N001, bicyclic peptide ligand, TATA scaffold, from CCR4 cell-based selection] = 11788

----------
target: CCR4 (Homo sapiens, UniProt P51679); construct: host or cells: CHO-K1; assay: PathHunter eXpress CCR4 CHO-K1 β-Arrestin GPCR Assay, agonist format; format: cell-based; details: high concentration, 0.6 uM
Experimental endpoint: Raw Data

ACQLTCLPPPRQPGCA [24-15-00-N001, bicyclic peptide ligand, TATA scaffold, from CCR4 cell-based selection] = 13586

I = ACLNGCRNTNSQCA [24-11-00-N001, bicyclic peptide ligand, TATA scaffold, from CCR4 cell-based selection]
II = ACRAVHSLRCLTTCA [24-17-00-N001, bicyclic peptide ligand, TATA scaffold, from CCR4 cell-based selection]
I'd appreciate it if you could identify which of I and II has the greater Raw Data. Give the label under which the chosen entry appears. II
(II: 15965, I: 11009)

----------
Target: CCR4 (Homo sapiens, UniProt P51679)
Construct: host or cells: CHO-K1
Sequence (P51679 1-360): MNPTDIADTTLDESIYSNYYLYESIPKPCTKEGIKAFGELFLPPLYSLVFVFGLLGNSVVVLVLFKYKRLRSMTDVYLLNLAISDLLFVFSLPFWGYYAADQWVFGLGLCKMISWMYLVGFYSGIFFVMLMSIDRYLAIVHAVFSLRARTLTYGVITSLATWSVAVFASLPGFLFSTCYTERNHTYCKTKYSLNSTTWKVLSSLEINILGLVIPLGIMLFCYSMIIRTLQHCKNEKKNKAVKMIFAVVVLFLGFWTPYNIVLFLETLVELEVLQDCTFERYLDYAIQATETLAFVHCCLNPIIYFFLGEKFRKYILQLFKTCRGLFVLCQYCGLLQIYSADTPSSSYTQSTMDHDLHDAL
Test: PathHunter eXpress CCR4 CHO-K1 β-Arrestin GPCR Assay, agonist format
Format: cell-based
Settings: 0.17 nM
Experimental endpoint: Raw Data

ACRAVHSLRCLTTCA [24-17-00-N001, bicyclic peptide ligand, TATA scaffold, from CCR4 cell-based selection] = 29746
ACQLTCLTPARQPGCA [24-14-00-N001, bicyclic peptide ligand, TATA scaffold, from CCR4 cell-based selection] = 28531
ACLNGCRNTNSQCA [24-11-00-N001, bicyclic peptide ligand, TATA scaffold, from CCR4 cell-based selection] = 25757
ACQLTCLPPPRQPGCA [24-15-00-N001, bicyclic peptide ligand, TATA scaffold, from CCR4 cell-based selection] = 28025
ACQTLCNTAEDIRCA [24-16-00-N001, bicyclic peptide ligand, TBMB scaffold, from CCR4 cell-based selection] = 25062
ACPLMSSVNCTAGCA [24-13-00-N001, bicyclic peptide ligand, TBMB scaffold, from CCR4 cell-based selection] = 31512
ACLSCARHGNQCA [24-12-00-N001, bicyclic peptide ligand, TATA scaffold, from CCR4 cell-based selection] = 27668

----------
Target: CCR4 (Homo sapiens, UniProt P51679)
Construct: host or cells: CHO-K1
Sequence (P51679 1-360): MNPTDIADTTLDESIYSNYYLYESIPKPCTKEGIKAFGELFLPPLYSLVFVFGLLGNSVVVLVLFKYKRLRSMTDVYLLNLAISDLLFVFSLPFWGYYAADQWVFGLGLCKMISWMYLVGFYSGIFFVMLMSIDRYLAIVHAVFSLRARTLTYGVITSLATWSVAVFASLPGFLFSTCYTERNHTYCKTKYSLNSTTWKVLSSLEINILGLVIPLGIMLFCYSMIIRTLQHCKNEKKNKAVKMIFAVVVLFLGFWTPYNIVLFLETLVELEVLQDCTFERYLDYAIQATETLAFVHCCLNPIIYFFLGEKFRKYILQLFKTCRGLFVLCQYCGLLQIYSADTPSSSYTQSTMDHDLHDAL
Assay: PathHunter eXpress CCR4 CHO-K1 β-Arrestin GPCR Assay, agonist format
Format: cell-based
Conditions: 41.7 nM
Experimental endpoint: Raw Data

ACRAVHSLRCLTTCA [24-17-00-N001, bicyclic peptide ligand, TATA scaffold, from CCR4 cell-based selection] = 23928
ACQTLCNTAEDIRCA [24-16-00-N001, bicyclic peptide ligand, TBMB scaffold, from CCR4 cell-based selection] = 20583
ACQLTCLTPARQPGCA [24-14-00-N001, bicyclic peptide ligand, TATA scaffold, from CCR4 cell-based selection] = 24892
ACQLTCLPPPRQPGCA [24-15-00-N001, bicyclic peptide ligand, TATA scaffold, from CCR4 cell-based selection] = 24463
ACPLMSSVNCTAGCA [24-13-00-N001, bicyclic peptide ligand, TBMB scaffold, from CCR4 cell-based selection] = 23071
ACLNGCRNTNSQCA [24-11-00-N001, bicyclic peptide ligand, TATA scaffold, from CCR4 cell-based selection] = 22581
ACLSCARHGNQCA [24-12-00-N001, bicyclic peptide ligand, TATA scaffold, from CCR4 cell-based selection] = 26640

----------
Target: CCR4 (Homo sapiens, UniProt P51679)
Construct: host or cells: CHO-K1
Sequence (P51679 1-360): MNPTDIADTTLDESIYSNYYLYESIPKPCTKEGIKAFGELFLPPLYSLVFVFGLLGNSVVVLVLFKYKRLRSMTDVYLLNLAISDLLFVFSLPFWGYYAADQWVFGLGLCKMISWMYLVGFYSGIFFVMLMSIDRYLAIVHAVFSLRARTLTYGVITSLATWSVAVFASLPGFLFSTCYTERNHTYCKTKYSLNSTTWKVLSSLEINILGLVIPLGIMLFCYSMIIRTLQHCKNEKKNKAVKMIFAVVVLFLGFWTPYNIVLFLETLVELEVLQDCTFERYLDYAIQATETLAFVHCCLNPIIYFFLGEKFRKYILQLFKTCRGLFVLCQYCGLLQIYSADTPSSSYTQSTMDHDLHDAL
Assay: PathHunter eXpress CCR4 CHO-K1 β-Arrestin GPCR Assay, antagonist format with CCL22
Assay type: cell-based
Settings: 1 nM CCL22, 0.003 uM
Experimental endpoint: Raw Data

ACQTLCNTAEDIRCA [24-16-00-N001, bicyclic peptide ligand, TBMB scaffold, from CCR4 cell-based selection] = 250550

a = ACPLMSSVNCTAGCA [24-13-00-N001, bicyclic peptide ligand, TBMB scaffold, from CCR4 cell-based selection]
b = ACLNGCRNTNSQCA [24-11-00-N001, bicyclic peptide ligand, TATA scaffold, from CCR4 cell-based selection]
Could you tell me which of a and b has the lower Raw Data reading? Give the label under which the chosen entry appears. b
